tested on: CCRIS mutagenicity, Ames/micronucleus/aberration tests; assay: CCRIS mutagenicity studies; conditions: Test System: AMES SALMONELLA TYPHIMURIUM; Strain/Indicator: TA1535; Metabolic Activation: RAT, LIVER, S-9, AROCLOR 1254; Method: PREINCUBATION
The source made the active and inactive calls. The rule behind the calls is not given here.
Hi there, use one of these labels in your reply, thanks! 1.0 (active), 0.0 (inactive)

For orientation, consider the following solved cases.
          compound  assigned_label
0  Oc1ccc(O)c(O)c1             0.0
1       CC(C)(C)OO             0.0
2   COc1ccc(OC)cc1             0.0

Shift focus to the following entry.
Problem: In this assay, the call recorded for CCOP(=S)(OCC)Oc1nc(Cl)c(Cl)cc1Cl was what?
Result: 0.0

====

system: CCRIS mutagenicity, Ames/micronucleus/aberration tests; test: CCRIS mutagenicity studies; conditions: Test System: E. COLI; Strain/Indicator: WP2 UVRA; Metabolic Activation: NONE; Method: STANDARD PLATE
The source made the active and inactive calls. How the calls were made is not given here.
OBSERVATION_TYPE: mutagenic call

Solved entries:
>>> df
                                   compound  observation_type              result
0                               ClCc1cccnc1    mutagenic call  inactive; negative
1  COC(=O)[C@H]1[C@H]2C[C@@H]3c4[nH]c5cc(OC)ccc5c4CCN3C[C@H]2C[C@@H](OC(=O)c2cc(OC)c(OC)c(OC)c2)[C@@H]1OC    mutagenic call  inactive; negative
2           NCCCNCCCCN(CCCN)/[N+]([O-])=N/O    mutagenic call    active; positive
3              c1ccc2cc3c(ccc4ccccc43)cc2c1    mutagenic call  inactive; negative
4  Cc1cccc(Nc2ccncc2S(=O)(=O)NC(=O)NC(C)C)c1    mutagenic call  inactive; negative
5                                    C=CC#N    mutagenic call    active; positive
6                      c1ccc2cc3ccccc3cc2c1    mutagenic call  inactive; negative
7  COP(=O)(OC)C(O)C(Cl)(Cl)Cl (stereo not drawn)    mutagenic call    active; positive

Problem: What measured mutagenic call goes with Nc1ccc([N+](=O)[O-])cc1N ?
Result: inactive; negative

Problem: Note, next up: CCCCCCCC/C=C\CCCCCCCC(=O)O
Result: inactive; negative

Problem: Note, next up: C[C@H](CCC(=O)O)[C@H]1CC[C@H]2[C@@H]3CC[C@@H]4C[C@H](O)CC[C@]4(C)[C@H]3CC[C@]12C
Result: inactive; negative

Problem: Note, next up: CN(C)C(=O)Cl
Result: inactive; negative

Problem: Note, next up: Cc1ccc(C2CO2)cc1 (stereo not drawn)
Result: active; positive

Problem: Note, next up: ClCC1CO1 (stereo not drawn)
Result: active; positive

Problem: Note, next up: O=C1CN=C(c2ccccc2)c2cc([N+](=O)[O-])ccc2N1
Result: inactive; negative

Problem: Note, next up: c1ccc2c(c1)c1cccc3ccc4cccc2c4c31
Result: inactive; negative

Problem: Note, next up: COc1ccc(C=O)cc1OC
Result: inactive; negative

Problem: Note, next up: COP(=O)(OC)OC=C(Cl)Cl
Result: active; positive
